- assay_system: Melanin-concentrating hormone receptor 1 (Homo sapiens, UniProt Q99705)
- Sequence (Q99705 whole entry): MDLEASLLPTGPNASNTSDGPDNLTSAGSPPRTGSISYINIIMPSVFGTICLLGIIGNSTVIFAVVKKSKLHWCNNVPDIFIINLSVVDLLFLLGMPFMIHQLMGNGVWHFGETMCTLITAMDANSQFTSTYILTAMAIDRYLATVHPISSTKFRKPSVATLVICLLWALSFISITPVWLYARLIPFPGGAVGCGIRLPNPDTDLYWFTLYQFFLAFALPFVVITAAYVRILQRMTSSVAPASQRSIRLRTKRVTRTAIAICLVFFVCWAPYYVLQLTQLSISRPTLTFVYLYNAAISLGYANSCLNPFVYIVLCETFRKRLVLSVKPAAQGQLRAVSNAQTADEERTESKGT
- method: Antagonist activity at human MCHR1 expressed in CHO cells assessed as change in MCH(4 to 19)-stimulated Ca2+ concentration by Ca2+ mobilization assay
- Type: functional, cell-based
pIC50: −log10 of the molar value.
experimental_endpoint: pIC50

INSERT INTO assay_data (structure_string, assay_system, experimental_endpoint, measured_value) VALUES
  ('Cn1c(C2CC2)nc2ccc(-n3ccc(OCc4ccc(C(F)(F)F)s4)cc3=O)cc21', 'Melanin-concentrating hormone receptor 1 (Homo sapiens, UniProt Q99705)', 'pIC50', 7.74),
  ('Cn1c(C2CC2)nc2ccc(-n3ccc(OCc4ccc(Cl)s4)cc3=O)cc21', 'Melanin-concentrating hormone receptor 1 (Homo sapiens, UniProt Q99705)', 'pIC50', 7.62);
